- target.under.test: Cyclin-dependent kinase 6 (Homo sapiens); further: in the data inactive means no Kd found up to 30 µM
- Sequence (Q00534 whole entry): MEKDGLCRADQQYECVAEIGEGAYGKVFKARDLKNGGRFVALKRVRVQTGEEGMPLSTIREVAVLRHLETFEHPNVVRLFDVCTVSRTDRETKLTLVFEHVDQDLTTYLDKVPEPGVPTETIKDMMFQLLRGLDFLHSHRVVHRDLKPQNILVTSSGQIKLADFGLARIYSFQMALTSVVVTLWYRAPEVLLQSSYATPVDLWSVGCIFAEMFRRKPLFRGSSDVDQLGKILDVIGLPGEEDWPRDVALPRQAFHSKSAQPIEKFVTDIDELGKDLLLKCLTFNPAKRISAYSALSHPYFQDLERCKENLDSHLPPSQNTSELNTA
Active and inactive are the calls of the source.
Classes used: TRUE = active, FALSE = inactive

[[record]]
compound = "CC(C)(C)c1nc(-c2cccc(NS(=O)(=O)c3c(F)cccc3F)c2F)c(-c2ccnc(N)n2)s1 [DABRAFENIB]"
group = "TRUE"

[[record]]
compound = "O=C1NC(=O)[C@@H](c2cn3c4c(cccc24)CCC3)[C@@H]1c1c[nH]c2ccccc12 [TIVANTINIB]"
group = "FALSE"

[[record]]
compound = "Cc1cc(Nc2ncnc3ccc(NC4=NC(C)(C)CO4)cc23)ccc1Oc1ccn2ncnc2c1 [TUCATINIB]"
group = "FALSE"

[[record]]
compound = "COc1ncc(-c2ccc3nccc(-c4ccnnc4)c3c2)cc1NS(=O)(=O)c1ccc(F)cc1F [OMIPALISIB]"
group = "FALSE"

[[record]]
compound = "CCNC(=O)C#Cc1ccc2c(c1)NC(=O)/C2=C(\\Nc1ccc(CN(C)C)cc1)c1ccccc1"
group = "TRUE"

[[record]]
compound = "COc1ccc(S(=O)(=O)N(C(C)=O)c2ccccc2/C=C/c2cc[n+]([O-])cc2)cc1 [HMN-214]"
group = "FALSE"

[[record]]
compound = "COc1cc2ncnc(Oc3cccc(NC(=O)Nc4cc(C(C)(C)C(F)(F)F)on4)c3)c2cc1OC [CEP-32496]"
group = "FALSE"

[[record]]
compound = "Cn1cnc2c(F)c(Nc3ccc(Br)cc3F)c(C(=O)NOCCO)cc21 [BINIMETINIB]"
group = "FALSE"


====

- target.under.test: UniProt O75116
- Sequence (O75116 whole entry): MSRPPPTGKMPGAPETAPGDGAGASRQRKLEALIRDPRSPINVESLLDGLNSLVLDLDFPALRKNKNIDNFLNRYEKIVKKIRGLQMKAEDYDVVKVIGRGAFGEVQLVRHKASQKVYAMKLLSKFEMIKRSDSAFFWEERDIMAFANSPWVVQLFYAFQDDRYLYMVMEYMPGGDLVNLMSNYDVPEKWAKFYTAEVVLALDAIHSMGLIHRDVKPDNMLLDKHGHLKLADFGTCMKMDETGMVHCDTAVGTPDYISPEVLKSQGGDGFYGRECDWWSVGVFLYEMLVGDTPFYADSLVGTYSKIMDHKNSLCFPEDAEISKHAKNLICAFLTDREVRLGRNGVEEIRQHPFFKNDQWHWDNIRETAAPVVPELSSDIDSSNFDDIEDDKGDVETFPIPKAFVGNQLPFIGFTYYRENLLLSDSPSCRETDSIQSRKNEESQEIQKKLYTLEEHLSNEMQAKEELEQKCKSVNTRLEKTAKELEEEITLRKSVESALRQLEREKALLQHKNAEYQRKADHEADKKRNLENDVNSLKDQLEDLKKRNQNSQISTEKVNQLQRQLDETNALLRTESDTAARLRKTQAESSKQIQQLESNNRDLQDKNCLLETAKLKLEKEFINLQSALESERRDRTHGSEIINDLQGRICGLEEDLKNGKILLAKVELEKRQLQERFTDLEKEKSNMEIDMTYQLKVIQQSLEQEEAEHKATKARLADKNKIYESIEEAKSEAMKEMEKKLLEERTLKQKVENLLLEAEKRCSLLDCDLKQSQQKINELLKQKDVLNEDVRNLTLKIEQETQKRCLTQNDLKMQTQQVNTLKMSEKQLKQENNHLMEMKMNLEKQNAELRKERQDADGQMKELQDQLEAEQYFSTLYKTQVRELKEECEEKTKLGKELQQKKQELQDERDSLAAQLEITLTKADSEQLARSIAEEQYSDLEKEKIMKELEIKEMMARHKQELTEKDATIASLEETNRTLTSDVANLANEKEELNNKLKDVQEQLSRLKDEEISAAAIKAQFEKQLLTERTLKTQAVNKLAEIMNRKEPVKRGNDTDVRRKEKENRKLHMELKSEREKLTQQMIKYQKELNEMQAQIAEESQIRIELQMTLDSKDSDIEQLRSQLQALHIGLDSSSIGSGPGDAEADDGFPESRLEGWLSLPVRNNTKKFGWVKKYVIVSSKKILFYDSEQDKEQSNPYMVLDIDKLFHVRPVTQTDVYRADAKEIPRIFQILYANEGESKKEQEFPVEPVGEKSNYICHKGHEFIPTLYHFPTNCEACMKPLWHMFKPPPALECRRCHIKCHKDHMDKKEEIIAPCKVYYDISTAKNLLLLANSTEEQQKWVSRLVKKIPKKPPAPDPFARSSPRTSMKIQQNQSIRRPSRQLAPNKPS
Active and inactive are the calls of the source.
Classes used: active, inactive

[[record]]
compound = "Cc1nc(Nc2n[nH]c3c2CN(C(=O)N[C@H](CN(C)C)c2ccccc2)C3(C)C)c2sccc2n1 [PF-03758309]"
group = "inactive"

[[record]]
compound = "CO[C@H]1C[C@@H]2CC[C@@H](C)[C@@](O)(O2)C(=O)C(=O)N2CCCC[C@H]2C(=O)O[C@H]([C@H](C)C[C@@H]2CC[C@@H](O)[C@H](OC)C2)CC(=O)[C@H](C)/C=C(\\C)[C@@H](O)[C@@H](OC)C(=O)[C@H](C)C[C@H](C)/C=C/C=C/C=C/1C [SIROLIMUS]"
group = "inactive"

[[record]]
compound = "Nc1ncnc2c1c(-c1cccc(OCc3ccccc3)c1)cn2[C@H]1C[C@@H](CN2CCC2)C1 [AEW-541]"
group = "active"

[[record]]
compound = "CCS(=O)(=O)c1cccc(-c2cc(C(=O)NC3CCN(C)CC3)c(C)c3[nH]c4ncc(C)cc4c23)c1 [TAK-901]"
group = "inactive"

[[record]]
compound = "Cc1cc(Nc2ncnc3ccc(NC4=NC(C)(C)CO4)cc23)ccc1Oc1ccn2ncnc2c1 [TUCATINIB]"
group = "inactive"

[[record]]
compound = "Cc1nc2cc(-c3nn(C(C)C)c4ncnc(N)c34)ccc2o1"
group = "inactive"

[[record]]
compound = "CCOc1cc2ncc(C#N)c(Nc3ccc(F)c(Cl)c3)c2cc1NC(=O)/C=C/CN(C)C [PELITINIB]"
group = "inactive"

[[record]]
compound = "COCc1c(-c2ccc(NC(=O)Nc3cc(C(F)(F)F)ccc3F)c(F)c2)c2c(N)ncnn2c1CN1CCOCC1"
group = "inactive"

[[record]]
compound = "CNC(=O)c1cc(Oc2ccc(NC(=O)Nc3cc(C(C)(C)C)nn3-c3ccc4ncccc4c3)c(F)c2)ccn1 [REBASTINIB]"
group = "inactive"

[[record]]
compound = "CN1CCN(CCOc2cc(OC3CCOCC3)c3c(Nc4c(Cl)ccc5c4OCO5)ncnc3c2)CC1 [SARACATINIB]"
group = "inactive"

[[record]]
compound = "C=CC(=O)Nc1cc2c(Nc3ccc(F)c(Cl)c3)ncnc2cc1C#CC(C)(C)N1CCN(C)CC1 [AV-412 FREE BASE]"
group = "inactive"

[[record]]
compound = "CCn1c(C(=O)N(C2CC2)C2CC2)cc2c3c(ncn3C)c(Nc3cc(C)n(C)n3)nc21 [BMS-911543]"
group = "inactive"

[[record]]
compound = "O=C(Nc1nc2cccc(-c3ccc(CN4CCS(=O)(=O)CC4)cc3)n2n1)C1CC1 [FILGOTINIB]"
group = "inactive"

[[record]]
compound = "O=C(Nc1c[nH]nc1-c1nc2cc(CN3CCOCC3)ccc2[nH]1)NC1CC1 [AT-9283]"
group = "inactive"

[[record]]
compound = "O=C(Cc1ccc(-c2ccc(OCCN3CCOCC3)cc2)cn1)NCc1ccccc1 [TIRBANIBULIN]"
group = "inactive"


====

- target.under.test: Tyrosine-protein kinase Fyn (Homo sapiens); further: in the data inactive means no Kd found up to 30 µM
Calls of active or inactive are those of the source.
Classes used: active, inactive

[[record]]
entry_smiles = "Cc1cc(Nc2ncc(Cl)c(Nc3ccccc3S(=O)(=O)C(C)C)n2)c(OC(C)C)cc1C1CCNCC1"
group = "inactive"

[[record]]
entry_smiles = "CCCCCCCCCCCCCCCCCCOP(=O)([O-])OC1CC[N+](C)(C)CC1"
group = "inactive"

[[record]]
entry_smiles = "CCNC(=O)C#Cc1ccc2c(c1)NC(=O)/C2=C(\\Nc1ccc(CN(C)C)cc1)c1ccccc1"
group = "active"

[[record]]
entry_smiles = "O=C(Nc1cc(C(F)(F)F)cc(C(F)(F)F)c1)c1cc(Cl)ccc1O"
group = "inactive"


====

The source made the active and inactive calls.
As an illustration, consider measured Kd for compounds on RAC-alpha serine/threonine-protein kinase (Homo sapiens).
parameter.measured: Kd

[[record]]
compound = "COCC(=O)NC/C=C/c1ccc2ncnc(Nc3ccc(Oc4ccc(C)nc4)c(C)c3)c2c1 [CP-724714]"
parameter_measured = "Kd"
result = "> 30 µM (inactive)"

[[record]]
compound = "CNC(=O)c1cccc2cc(Oc3ccnc4cc(OCC5(N)CC5)c(OC)cc34)ccc12 [LUCITANIB]"
parameter_measured = "Kd"
result = "> 30 µM (inactive)"

[[record]]
compound = "Cc1nc2cc(-c3nn(C(C)C)c4ncnc(N)c34)ccc2o1"
parameter_measured = "Kd"
result = "> 30 µM (inactive)"


====

// values below are reported Kd
- target.under.test: UniProt O76039
- Sequence (O76039 whole entry): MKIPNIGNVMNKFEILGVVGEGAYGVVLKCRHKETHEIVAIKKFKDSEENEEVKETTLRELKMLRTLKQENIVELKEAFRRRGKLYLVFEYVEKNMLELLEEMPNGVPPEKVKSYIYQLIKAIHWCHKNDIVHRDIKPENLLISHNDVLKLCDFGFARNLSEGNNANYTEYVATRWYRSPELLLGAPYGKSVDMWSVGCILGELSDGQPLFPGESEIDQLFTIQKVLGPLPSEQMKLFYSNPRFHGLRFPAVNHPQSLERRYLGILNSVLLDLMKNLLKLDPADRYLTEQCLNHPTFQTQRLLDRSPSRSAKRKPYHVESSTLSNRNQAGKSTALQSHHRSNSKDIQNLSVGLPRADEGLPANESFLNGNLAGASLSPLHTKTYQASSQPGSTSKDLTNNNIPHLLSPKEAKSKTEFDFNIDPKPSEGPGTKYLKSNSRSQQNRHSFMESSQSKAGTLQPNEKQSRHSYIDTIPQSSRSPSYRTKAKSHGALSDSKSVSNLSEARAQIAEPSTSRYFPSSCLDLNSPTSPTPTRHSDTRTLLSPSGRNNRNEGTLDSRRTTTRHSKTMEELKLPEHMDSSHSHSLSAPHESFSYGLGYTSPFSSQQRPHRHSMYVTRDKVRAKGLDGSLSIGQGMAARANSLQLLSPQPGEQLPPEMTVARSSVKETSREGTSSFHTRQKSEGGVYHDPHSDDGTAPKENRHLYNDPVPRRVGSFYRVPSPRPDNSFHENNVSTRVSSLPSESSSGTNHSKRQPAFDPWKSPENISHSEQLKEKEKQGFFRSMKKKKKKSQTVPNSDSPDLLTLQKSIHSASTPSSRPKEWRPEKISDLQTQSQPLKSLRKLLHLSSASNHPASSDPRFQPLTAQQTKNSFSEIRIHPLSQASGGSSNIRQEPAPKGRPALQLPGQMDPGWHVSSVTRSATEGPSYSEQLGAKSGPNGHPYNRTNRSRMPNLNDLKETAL
Structures can show the parent of a compound that is named as a salt. Activity calls are given as the source filed them.
parameter.measured: Kd

[[record]]
compound = "COCC(=O)NC/C=C/c1ccc2ncnc(Nc3ccc(Oc4ccc(C)nc4)c(C)c3)c2c1"
result = "> 30 µM (inactive)"

[[record]]
compound = "CO[C@H]1C[C@@H]2CC[C@@H](C)[C@@](O)(O2)C(=O)C(=O)N2CCCC[C@H]2C(=O)O[C@H]([C@H](C)C[C@@H]2CC[C@@H](O)[C@H](OC)C2)CC(=O)[C@H](C)/C=C(\\C)[C@@H](O)[C@@H](OC)C(=O)[C@H](C)C[C@H](C)/C=C/C=C/C=C/1C"
result = "> 30 µM (inactive)"

[[record]]
compound = "CCS(=O)(=O)N1CCN(c2ccc(Nc3ncc(C(N)=O)c(NC4CC4)n3)cc2)CC1 [Cerdulatinib Hydrochloride]"
result = "> 30 µM (inactive)"


====

- target.under.test: Mitogen-activated protein kinase kinase kinase kinase 5 (Homo sapiens, UniProt Q9Y4K4); further: in the data inactive means no Kd found up to 30 µM
- Sequence (Q9Y4K4 whole entry): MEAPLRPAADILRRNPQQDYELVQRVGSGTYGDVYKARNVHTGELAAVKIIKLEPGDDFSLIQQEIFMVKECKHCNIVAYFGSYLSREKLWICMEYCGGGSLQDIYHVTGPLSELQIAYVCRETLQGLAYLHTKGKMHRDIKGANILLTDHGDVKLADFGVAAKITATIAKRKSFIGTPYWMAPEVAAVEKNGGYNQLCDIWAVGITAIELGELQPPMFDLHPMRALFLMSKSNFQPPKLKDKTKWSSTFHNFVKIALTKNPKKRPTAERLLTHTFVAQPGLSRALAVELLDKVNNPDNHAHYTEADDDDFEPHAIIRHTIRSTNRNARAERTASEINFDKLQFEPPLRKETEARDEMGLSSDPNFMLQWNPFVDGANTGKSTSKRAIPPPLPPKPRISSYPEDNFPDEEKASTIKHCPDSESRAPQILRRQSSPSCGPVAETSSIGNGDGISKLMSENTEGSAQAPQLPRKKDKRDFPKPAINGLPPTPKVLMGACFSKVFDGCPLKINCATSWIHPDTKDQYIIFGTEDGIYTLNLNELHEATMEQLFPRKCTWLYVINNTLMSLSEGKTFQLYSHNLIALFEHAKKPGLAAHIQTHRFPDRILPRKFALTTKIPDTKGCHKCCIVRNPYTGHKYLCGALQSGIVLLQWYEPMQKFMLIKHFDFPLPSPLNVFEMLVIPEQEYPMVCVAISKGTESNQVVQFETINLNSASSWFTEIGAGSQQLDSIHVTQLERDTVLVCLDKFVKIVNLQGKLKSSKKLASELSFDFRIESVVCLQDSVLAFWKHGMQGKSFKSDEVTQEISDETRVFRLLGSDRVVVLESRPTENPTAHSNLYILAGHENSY
Active and inactive are the calls of the source.
Classes used: y (active), n (inactive)

[[record]]
entry_smiles = "Cn1ncc(Cl)c1-c1cc(C(=O)N[C@H](CN)Cc2ccc(F)c(F)c2)oc1Cl"
group = "n"

[[record]]
entry_smiles = "Nc1ncnc2c1c(-c1cccc(OCc3ccccc3)c1)cn2[C@H]1C[C@@H](CN2CCC2)C1"
group = "y"

[[record]]
entry_smiles = "Cc1cc(Nc2ncnc3ccc(NC4=NC(C)(C)CO4)cc23)ccc1Oc1ccn2ncnc2c1"
group = "n"

[[record]]
entry_smiles = "COCC(=O)NC/C=C/c1ccc2ncnc(Nc3ccc(Oc4ccc(C)nc4)c(C)c3)c2c1"
group = "n"

[[record]]
entry_smiles = "Cc1nc(Nc2n[nH]c3c2CN(C(=O)N[C@H](CN(C)C)c2ccccc2)C3(C)C)c2sccc2n1"
group = "n"

[[record]]
entry_smiles = "Cc1nc(NC(=O)N2CCC[C@H]2C(N)=O)sc1-c1ccnc(C(C)(C)C(F)(F)F)c1"
group = "n"

[[record]]
entry_smiles = "Cc1cnc(NC(=O)Nc2cc(Br)c(C)cc2OC[C@@H]2CNCCO2)cn1"
group = "n"

[[record]]
entry_smiles = "Cn1cnc2c(F)c(Nc3ccc(Br)cc3F)c(C(=O)NOCCO)cc21"
group = "n"


====

Calls of active or inactive are those of the source.
As an illustration, consider measured Kd for molecules on Tyrosine-protein kinase JAK1 (Homo sapiens).
Sequence (P23458 whole entry): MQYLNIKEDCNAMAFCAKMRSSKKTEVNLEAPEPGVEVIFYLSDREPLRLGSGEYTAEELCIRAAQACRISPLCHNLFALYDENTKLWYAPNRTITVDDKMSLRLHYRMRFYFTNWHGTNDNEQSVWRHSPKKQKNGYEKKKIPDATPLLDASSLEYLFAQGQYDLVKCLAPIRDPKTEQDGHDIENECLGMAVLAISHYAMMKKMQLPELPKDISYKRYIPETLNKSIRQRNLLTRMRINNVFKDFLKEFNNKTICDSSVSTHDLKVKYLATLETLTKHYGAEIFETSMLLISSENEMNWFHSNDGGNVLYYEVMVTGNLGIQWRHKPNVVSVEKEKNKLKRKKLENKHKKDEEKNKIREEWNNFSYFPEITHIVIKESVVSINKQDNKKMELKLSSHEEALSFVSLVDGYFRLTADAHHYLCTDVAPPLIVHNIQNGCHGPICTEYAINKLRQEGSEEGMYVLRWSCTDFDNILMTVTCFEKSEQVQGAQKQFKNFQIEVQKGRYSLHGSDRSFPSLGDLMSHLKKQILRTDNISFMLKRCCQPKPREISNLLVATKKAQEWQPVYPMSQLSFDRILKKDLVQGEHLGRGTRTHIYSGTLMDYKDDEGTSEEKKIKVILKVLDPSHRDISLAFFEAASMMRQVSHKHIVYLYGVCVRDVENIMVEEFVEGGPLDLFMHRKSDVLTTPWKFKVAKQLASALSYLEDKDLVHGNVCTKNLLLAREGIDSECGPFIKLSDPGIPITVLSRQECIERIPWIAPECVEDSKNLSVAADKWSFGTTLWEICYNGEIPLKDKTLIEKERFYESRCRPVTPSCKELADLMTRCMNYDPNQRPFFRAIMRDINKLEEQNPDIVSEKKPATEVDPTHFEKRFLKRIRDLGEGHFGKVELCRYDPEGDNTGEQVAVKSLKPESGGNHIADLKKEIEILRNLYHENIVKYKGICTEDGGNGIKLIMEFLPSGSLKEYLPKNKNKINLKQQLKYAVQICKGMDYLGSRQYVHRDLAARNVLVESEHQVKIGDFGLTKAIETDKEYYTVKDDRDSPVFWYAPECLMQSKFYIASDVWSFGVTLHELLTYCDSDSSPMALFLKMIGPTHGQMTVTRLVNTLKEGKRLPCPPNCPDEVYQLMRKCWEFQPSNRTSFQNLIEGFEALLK
parameter.measured: Kd

[[record]]
molecule = "Cc1cc(C(=O)NOCCO)c(Nc2ccc(I)cc2F)n(C)c1=O [AZD-8330]"
result = "> 30 µM (inactive)"

[[record]]
molecule = "CNC(=O)c1cccc2cc(Oc3ccnc4cc(OCC5(N)CC5)c(OC)cc34)ccc12 [LUCITANIB]"
result = "> 30 µM (inactive)"

[[record]]
molecule = "CCOc1cc2ncc(C#N)c(Nc3ccc(F)c(Cl)c3)c2cc1NC(=O)/C=C/CN(C)C [PELITINIB]"
result = "> 30 µM (inactive)"

[[record]]
molecule = "CCNC(=O)C#Cc1ccc2c(c1)NC(=O)/C2=C(\\Nc1ccc(CN(C)C)cc1)c1ccccc1"
result = "> 30 µM (inactive)"

[[record]]
molecule = "CC(C)c1cc(CNc2nc(Nc3cc(C4CC4)[nH]n3)cc(N3CCN(C)CC3)n2)on1 [XL-228]"
result = "> 30 µM (inactive)"

[[record]]
molecule = "Cc1[nH]c(/C=C2\\C(=O)Nc3ccccc32)c(C)c1CCC(=O)O [ORANTINIB]"
result = "> 30 µM (inactive)"

[[record]]
molecule = "NC1(c2ccc(-c3nc4ccn5c(=O)[nH]nc5c4cc3-c3ccccc3)cc2)CCC1 [MK-2206]"
result = "> 30 µM (inactive)"

[[record]]
molecule = "COc1cc2c(Nc3ccc(Cl)c(Cl)c3F)ncnc2cc1OC[C@@H]1C[C@@H]2CN(C)C[C@@H]2C1 [TESEVATINIB]"
result = "> 30 µM (inactive)"

